EXPERIMENT: acute toxicity in mouse
TEST_SETTINGS: in vivo, po, method of Litchfield and Wilcoxon
MEASUREMENT_TYPE: LD50 (mg/kg)
Provide only the numeric value, understood in mg/kg.

MOLECULE: COC[C@H]1CN(c2ccc(OCC[C@@H](O)C(F)(F)F)cc2)C(=O)O1 [MD370503]
UNIT_ABBREV: mg/kg
LD50: 2500

Lab note: next molecule to report on.
q: Hello, please tell me recorded LD50 for this one: COC[C@H]1CN(c2ccc(OCC[C@@H](C)O)cc2)C(=O)O1 [MD370120]
a: 1400

###

Item-by-item account of ED50
Tested on: 5-HTP potentialisation
EXPERIMENT: 5-HTP potentialisation assay in rat (antidepressive activity)
Format: in vivo
TEST_SETTINGS: po, compound given orally, 5-HTP intra-peritoneal 1 h after the first treatment, read-out: ED50 (dose which brings about in 50% of the animals generalized shakings or stereotypies consecutive to 5-HTP)
Value expressed in mg/kg; do not type the unit.

Examples with their reported ED50 follow.
COMPOUND: COC[C@H]1CN(c2ccc(OCC[C@@H](C)O)cc2)C(=O)O1
ED50 [mg/kg]: 0.83

COMPOUND: COC[C@H]1CN(c2ccc(CCCC(C)O)cc2)C(=O)O1 (some centres unmarked)
ED50 [mg/kg]: 1.1

COMPOUND: COC[C@H]1CN(c2ccc(OCC3CCCC3O)cc2)C(=O)O1 (some centres unmarked)
ED50 [mg/kg]: 1.6

Consider the additional compound presented here.
q: Tell me its ED50 given COC[C@H]1CN(c2ccc(OCC[C@H](O)C(F)(F)F)cc2)C(=O)O1 as the entry.
a: 1.8
